Values were extracted from patent US20240400654A1.

What OD450 nm was measured for each of the following?
- TARGET OF ASSAY: HRgpA-6H (Porphyromonas gingivalis) (UniProt P28784)
- ASSAY COMMENT: ELISA, coated HRgpA-6H
Response field accepts a number only; no unit should be typed.

Which OD450 nm is listed for KB001 mouse Fab VL T52K (Fab, V domains shown) VH: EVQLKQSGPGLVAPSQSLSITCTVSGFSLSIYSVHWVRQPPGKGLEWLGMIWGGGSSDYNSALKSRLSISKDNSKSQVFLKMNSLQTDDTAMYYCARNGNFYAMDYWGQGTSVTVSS VL: QIVLTQSPAIMSASLGERVTMTCTASSSVSSSFLHWYQQKPGSSPQLWIYSKSNLASGVPARFSGSGSGTSYSLTISSMEAEDAATYYCHQYHHSPYIYTFGGGTKLEIK ?
0.681

Which OD450 nm is listed for KB001 mouse Fab VH G55N (Fab, V domains shown) VH: EVQLKQSGPGLVAPSQSLSITCTVSGFSLSIYSVHWVRQPPGKGLEWLGMIWGGNSSDYNSALKSRLSISKDNSKSQVFLKMNSLQTDDTAMYYCARNGNFYAMDYWGQGTSVTVSS VL: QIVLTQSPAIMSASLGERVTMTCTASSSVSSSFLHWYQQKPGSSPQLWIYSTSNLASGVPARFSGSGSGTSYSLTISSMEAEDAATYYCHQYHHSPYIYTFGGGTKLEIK ?
0.652

Which OD450 nm is listed for KB001 mouse Fab VL S53R (Fab, V domains shown) VH: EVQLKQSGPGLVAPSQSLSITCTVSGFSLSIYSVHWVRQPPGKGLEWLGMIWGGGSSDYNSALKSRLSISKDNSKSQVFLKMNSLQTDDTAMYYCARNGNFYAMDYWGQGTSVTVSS VL: QIVLTQSPAIMSASLGERVTMTCTASSSVSSSFLHWYQQKPGSSPQLWIYSTRNLASGVPARFSGSGSGTSYSLTISSMEAEDAATYYCHQYHHSPYIYTFGGGTKLEIK ?
0.637
